Assay: Metabolic stability in Sprague-Dawley rat liver microsomes assessed as compound remaining at 180 mins in presence of NADPH regenerating system by HPLC method
Format: ADME
Settings: read-out: Stability
attributeMeasured: remaining at 3 h (%)
Field format: number, assumed %, no unit text.

Qu. Name the reported remaining at 3 h value associated with the compound COc1ccc2c(/C=C(\C)C(=O)c3cc(OC)c(OC)c(OC)c3)c[nH]c2c1
Ans. 42.4

====

Test system: A549
Assay: Cytotoxicity against human A549 cells assessed as cell viability after 48 hrs by MTT assay
Format: functional, cell-based
Settings: A549, 48 h
attributeMeasured: pIC50
pIC50 is a log-scale quantity: -log10 of the concentration expressed in molar.

Qu. Name the reported pIC50 value associated with the compound CC[C@]1(O)C[C@H]2CN(CCc3c([nH]c4ccccc34)[C@@](C(=O)OC)(c3cc4c(cc3OC)N(C=O)[C@H]3[C@@](O)(C(=O)OC)[C@H](OC(C)=O)[C@]5(CC)C=CCN6CC[C@]43[C@@H]65)C2)C1
Ans. 7.21

Qu. Record: COc1ccc2c(/C=C(\C)C(=O)c3cc(OC)c(OC)c(OC)c3)c[nH]c2c1
Ans. 8.52

Qu. Record: COc1ccc2c(/C=C(\C)C(=O)c3cc(OC)c(OC)c(OC)c3)cn(CCBr)c2c1
Ans. 6.90

Qu. Record: COc1cc(C(=O)/C=C/c2cccc3c2ccn3C)cc(OC)c1OC
Ans. 7.52

====

Experiment: Selectivity ratio of IC50 for human MCF10A cells to IC50 for human A549 cells
Format: ADME, cell-based
Conditions: MCF10A cells versus A549 cells, read-out: Ratio IC50
attributeMeasured: selectivity ratio
Reply with the value as a number alone.

Qu. Name the reported selectivity ratio value associated with the compound COc1ccc2c(/C=C(\C)C(=O)c3cc(OC)c(OC)c(OC)c3)c[nH]c2c1
Ans. 891

====

Test: Cytotoxicity against human Bel7402 cells assessed as cell viability after 48 hrs by MTT assay
Assay type: functional, cell-based
Settings: Bel-7402, 48 h
Threshold 100 nM: IC50 strictly smaller gives 1 (yes), otherwise 0 (no).

Qu. API: query returns whether the compound falls strictly under 100 nM in IC50. Query: COc1ccc2[nH]cc(/C=C/C(=O)c3cc(OC)c(OC)c(OC)c3)c2c1
Ans. 0 (no)

Qu. Record: COc1ccc2c(/C=C/C(=O)c3ccc(OC)c4c3OC(C)(C)C=C4)c[nH]c2c1
Ans. 1 (yes)

Qu. Record: COc1ccc2[nH]cc(/C=C(\C)C(=O)c3cc(OC)c(OC)c(OC)c3)c2c1
Ans. 1 (yes)

Qu. Record: COc1ccc2c(/C=C(\C)C(=O)c3cc(OC)c(OC)c(OC)c3)c[nH]c2c1
Ans. 1 (yes)

Qu. Record: COc1ccc2c(/C=C(\C)C(=O)c3cc(OC)c(OC)c(OC)c3)cn(C)c2c1
Ans. 1 (yes)

Qu. Record: COc1ccc(C(=O)/C=C/c2c[nH]c3cccc(OC)c23)c2c1C=CC(C)(C)O2
Ans. 0 (no)

Qu. Record: COc1ccc2c(c1)c(/C=C(\C)C(=O)c1cc(OC)c(OC)c(OC)c1)cn2C
Ans. 0 (no)

Qu. Record: COc1cc(C(=O)/C=C/c2ccc3c(ccn3C)c2)cc(OC)c1OC
Ans. 1 (yes)

Qu. Record: COc1cc(C(=O)/C(C)=C/c2cn(C)c3cccc(OC)c23)cc(OC)c1OC
Ans. 0 (no)

====

System: HeLa
Test: Cytotoxicity against human HeLa cells assessed as cell viability after 48 hrs by MTT assay
Assay type: functional, cell-based
Exercise: for every item that follows, state its recorded IC50.
Field format: number, assumed nM, no unit text.

Qu. Requested read-out IC50, target or system HeLa, entry COc1cc(C(=O)/C=C/c2cccc3c2ccn3C)cc(OC)c1OC
Ans. 31

Qu. Record: COc1ccc2c(/C=C/C(=O)c3ccc(OC)c4c3OC(C)(C)C=C4)cn(C)c2c1
Ans. 93

Qu. Record: COc1ccc2[nH]cc(/C=C(\C)C(=O)c3cc(OC)c(OC)c(OC)c3)c2c1
Ans. 78

Qu. Record: CCCn1cc(/C=C(\C)C(=O)c2cc(OC)c(OC)c(OC)c2)c2ccc(OC)cc21
Ans. 531

Qu. Record: COc1cc(C(=O)/C=C/c2ccc3[nH]ccc3c2)cc(OC)c1OC
Ans. 22

Qu. Record: CCn1cc(/C=C(\C)C(=O)c2cc(OC)c(OC)c(OC)c2)c2ccc(OC)cc21
Ans. 65

====

Test system: A549
Assay: Cytotoxicity against human A549 cells assessed as cell viability after 48 hrs by MTT assay
Assay type: functional, cell-based
Conditions: A549, 48 h
attributeMeasured: pIC50
pIC50 is a log-scale quantity: -log10 of the concentration expressed in molar.

Qu. Name the reported pIC50 value associated with the compound COc1ccc2c(c1)c(/C=C/C(=O)c1ccc(OC)c3c1OC(C)(C)C=C3)cn2C
Ans. 6.34

Qu. Record: COc1cccc2c1C(=O)c1c(O)c3c(c(O)c1C2=O)C[C@@](O)(C(=O)CO)C[C@@H]3O[C@H]1C[C@H](N)[C@H](O)[C@H](C)O1 [DOXORUBICIN]
Ans. 5.66

Qu. Record: COc1cc(C(=O)/C=C/c2cccc3[nH]ccc23)cc(OC)c1OC
Ans. 7.44

Qu. Record: COc1ccc2[nH]cc(/C=C(\C)C(=O)c3cc(OC)c(OC)c(OC)c3)c2c1
Ans. 7.13

Qu. Record: COc1ccc2c(/C=C(\C)C(=O)c3cc(OC)c(OC)c(OC)c3)cn(P(=O)([O-])[O-])c2c1.[Na+].[Na+]
Ans. 7.25

Qu. Record: COc1cc(C(=O)/C=C/c2ccc3c(ccn3C)c2)cc(OC)c1OC
Ans. 7.28

Qu. Record: COc1cc(C(=O)/C=C/c2ccc3[nH]ccc3c2)cc(OC)c1OC
Ans. 7.48

Qu. Record: COc1ccc2c(/C=C/C(=O)c3cc(OC)c(OC)c(OC)c3)c[nH]c2c1
Ans. 6.65

====

System: HeLa
Test: Cytotoxicity against human HeLa cells assessed as cell viability after 48 hrs by MTT assay
Type: functional, cell-based
attributeMeasured: log10 IC50 (log10 of the value in nM)
Recall that a logarithmic scale is used here: each number is log10 of IC50 in nM.

Qu. Requested read-out log10 IC50, target or system HeLa, entry COc1ccc2c(/C=C/C(=O)c3cc(OC)c(OC)c(OC)c3)cn(C)c2c1
Ans. 1.79

Qu. Record: COc1ccc2c(c1)c(/C=C(\C)C(=O)c1cc(OC)c(OC)c(OC)c1)cn2C
Ans. 2.37

Qu. Record: COc1ccc2c(c1)c(/C=C/C(=O)c1cc(OC)c(OC)c(OC)c1)cn2C
Ans. 2.73

Qu. Record: COc1ccc2c(/C=C(\C)C(=O)c3cc(OC)c(OC)c(OC)c3)cn(C)c2c1
Ans. 1.49

Qu. Record: COc1ccc2c(/C=C(\C)C(=O)c3cc(OC)c(OC)c(OC)c3)cn(CCBr)c2c1
Ans. 2.16

Qu. Record: COc1ccc2c(c1)c(/C=C/C(=O)c1ccc(OC)c3c1OC(C)(C)C=C3)cn2C
Ans. 2.62

Qu. Record: COc1ccc2[nH]cc(/C=C/C(=O)c3ccc(OC)c4c3OC(C)(C)C=C4)c2c1
Ans. 2.51

Qu. Record: COc1cc(C(=O)/C=C/c2cccc3[nH]ccc23)cc(OC)c1OC
Ans. 1.58

Qu. Record: COc1ccc2c(/C=C(\C)C(=O)c3cc(OC)c(OC)c(OC)c3)cn(CO)c2c1
Ans. 1.11

Qu. Record: COc1cc(C(=O)/C=C/c2ccc3c(ccn3C)c2)cc(OC)c1OC
Ans. 1.76

Qu. Record: COc1ccc2c(/C=C(\C)C(=O)c3cc(OC)c(OC)c(OC)c3)cn(CCO)c2c1
Ans. 1.54

Qu. Record: C=Cn1cc(/C=C(\C)C(=O)c2cc(OC)c(OC)c(OC)c2)c2ccc(OC)cc21
Ans. 1.83

Qu. Record: COc1cc2c(c(OC)c1OC)C/C(=C\c1cccc3[nH]ccc13)C2=O
Ans. 1.43

Qu. Record: COc1ccc(/C=C\c2cc(OC)c(OC)c(OC)c2)cc1O
Ans. 1.08

Qu. Record: COc1ccc2c(/C=C/C(=O)c3cc(OC)c(OC)c(OC)c3)c[nH]c2c1
Ans. 2.42

====

Test: Selectivity ratio of IC50 for quiescent HUVEC to IC50 for human A549 cells
Format: ADME, cell-based
Conditions: quiescent HUVEC versus A549 cells, read-out: Ratio IC50
attributeMeasured: selectivity ratio
Reply with the value as a number alone.

Qu. Name the reported selectivity ratio value associated with the molecule COc1ccc2c(/C=C(\C)C(=O)c3cc(OC)c(OC)c(OC)c3)c[nH]c2c1
Ans. 54.3
